biological target: RSV A2 pre-F (RSV A2); assay: BLI
pKd: −log10 of the molar value.
measured-attribute: pKd

binder	measured-attribute	reported
F6-227 (antibody, V domains shown) VH: QVQLQQSGPGLVKPSETLSLACSVSGGSMSDFYWSWIRQSPGTGLEWIGYVHHSGKVNYNPSLKARVTMSLDTSKYLLSLNLASMTAADSAVYYCAATSAFVDSSSYSPPYFDFWGQGTLITVSS VL: DIQLTQSPSSLSASVGDRVTITCQASHDITNYLNWYQQTPGKAPRLLIYVATNLETGVPSRFSGSGSGTHFTLTISSLQPEDSATYYCQQYDNLPITFGGGTRVEIR	pKd	9.77
F6-215 (antibody, V domains shown) VH: QEQSVQSGPEVKKPGASVKVSCRASEFTFSTDFIHWVRQAPGQGLEWMGRITPSDGTTTYAPKFQGRVAVTRDPSTKNVYIQLTRLKSEDTAVYYCVAYDRATTSAGAGATDIWGQGTLVTVSS VL: DIVMTQSPLSLPVTPGEPASISCRSSQSLLHGDGYNYLDWYLQRPGRSPQLLIYLGSHRASGVPDRFSGSGSGTDFTLRISRVEAEDVGIYYCMQGLQTPFTFGPGTKVDIK	pKd	9.09
